Reference source: the supplement of paper PMC10567573

Listed next: entries and their corresponding protein stability index.
B1: WDFY2 (parent)
chain: FWNFKQMWDSKKIGLRQHHCRKCG

Variants of: B1
test-summary: protein stability index of a GFP-peptide fusion (GPS, HEK-293T) (PSI 1-6); higher = more stable;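 note: lentivirally expressed fusions sorted by FACS into six bins by GFP to DsRed ratio, PSI derived from sequencing read proportions per bin multiplied by bin number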
experimental-setup: c terminus: a fixed tail appended

L15F
1.81
W2K
2.04
K12F
1.84
Q6R
1.79

For the variant I13Y , what protein stability index is on record?
2.25

What about S10C ?
1.94

What about H18K ?
2.06

What about F4S ?
2.12

What about K12G ?
1.58

What about H18R ?
2.5

What about N3K ?
1.7

What about G24H ?
1.71

What about S10P ?
2.17

What about K11S ?
1.25

What about R21Y ?
1.58
